- test.details: inhibitors of TNF-alpha triggered necroptosis, primary screen, cell-based, Jurkat FADD-/-, single concentration (AID 463075);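 note: necroptosis triggered by 40 ng/mL TNF-alpha added together with compound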
- setup.conditions: Jurkat FADD-/- TNF necroptosis rescue, ATP luminescence, 24 h; at 10 µM; active compounds read high; 0 = TNF only, 100 = no-TNF cells
Screen size: about 220,000 compounds; about 150 (0.068%) were called active. For the sample, actives were picked, then their nearest neighbours and some compounds at random.
Below, each of the compounds is paired with its reported activation (protection from cell death) value.
property.measured: activation (protection from cell death)

compound=C=CCNC(=O)c1sc(SC)cc1-c1ccc(Cl)cc1 property_measured="activation (protection from cell death)" result="-2.68% (inactive)"
compound=COc1cc(OC)cc(-c2cc3nc(C4CCN(C(=O)OC(C)(C)C)CC4)cc(=O)n3[nH]2)c1 property_measured="activation (protection from cell death)" result="1.03% (inactive)"
compound=CCCc1cc(=S)n2c([nH]c3ccccc32)c1C#N property_measured="activation (protection from cell death)" result="-1.86% (inactive)"
compound="CC(NC(=S)NNS(=O)(=O)c1ccc(C(C)(C)C)cc1)c1ccccc1 (stereo unspecified)" property_measured="activation (protection from cell death)" result="5.41% (inactive)"
compound=NS(=O)(=O)c1ccc(NC(=S)NC(=O)c2cccc(Br)c2)cc1 property_measured="activation (protection from cell death)" result="-0.737% (inactive)"
compound=CCOC(=O)C1=C(CC)Nc2ccccc2N=C1NC(=O)c1cccc(S(=O)(=O)N2CCCC2)c1 property_measured="activation (protection from cell death)" result="-3.1% (inactive)"
compound=O=C(CCCOc1ccc(Cl)cc1Cl)NNC(=O)C1CCC1 property_measured="activation (protection from cell death)" result="3.99% (inactive)"
compound="NC(=O)c1ccc(NC(=O)COC(=O)C(Cc2ccccc2)NC(=O)c2ccccc2)cc1 (stereo unspecified)" property_measured="activation (protection from cell death)" result="0.97% (inactive)"
compound=O=C(c1ccc(S(=O)(=O)c2ccccc2)cc1)N1CCCCCC1 property_measured="activation (protection from cell death)" result="1.36% (inactive)"
compound="O=C(NC(Cc1c[nH]c2ccccc12)C(=O)N/N=C/c1ccc(Br)cc1)c1cccs1 (stereo unspecified)" property_measured="activation (protection from cell death)" result="-2.26% (inactive)"
compound=COc1ccccc1C(=O)CSc1cccc[n+]1[O-] property_measured="activation (protection from cell death)" result="-0.693% (inactive)"

----------
- test.details: inhibitors of TNF-alpha triggered necroptosis, primary screen, cell-based, Jurkat FADD-/-, single concentration (AID 463075);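 note: necroptosis triggered by 40 ng/mL TNF-alpha added together with compound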
- setup.conditions: Jurkat FADD-/- TNF necroptosis rescue, ATP luminescence, 24 h; at 10 µM; active compounds read high; 0 = TNF only, 100 = no-TNF cells
Among all 220,000 compounds or so, about 150 (0.068%) were called active. Only a selection was taken, and actives are over-represented in it overall.
Below, each of the compounds is paired with its reported activation (protection from cell death) value.
property.measured: activation (protection from cell death) (%)

compound="CCN(C(=O)COc1cccnc1[N+](=O)[O-])C1CCS(=O)(=O)C1 (configuration not stated)" result=0.598
compound=COc1ccc(NC(=O)c2sccc2SCC#N)cc1 result=-2.27
compound=Cc1ccc(S(=O)(=O)N(C)C)cc1NC(=O)COC(=O)c1c(C)noc1C result=0.89
compound="CC(C)CCN1NC2(CCC(C)CC2)NC1=S (configuration not stated)" result=-1.55
compound=CCOc1cc(CNCCN(C)C)c(Cl)cc1OCC(=O)NCCc1ccccc1 result=-1.03
compound=O=C(Nc1ccn(Cc2ccccc2)n1)c1cccc(F)c1 result=3.16
compound=CCn1c(SCC(=O)Nc2sc(C)c(C)c2C#N)nnc1C1CC1 result=4.46
compound=Cc1n[nH]c(=O)nc1N/N=C/c1cccs1 result=-6.4
compound=C/C(CCc1ccccc1)=N\NC(=O)c1ccc(CN2CCOCC2)cc1 result=0.488
compound=O=C(Nc1ccn(Cc2ccccc2F)n1)c1ccc(COc2ccc(Cl)cc2Cl)o1 result=-6.7
compound=Cn1c(S(=O)(=O)O)nc2ccccc21 result=1.18
compound=CN(C)Cc1ccc(F)cc1Sc1cc(Cl)ccc1Cl result=0.603
